Cited source: patent US20220000998A1

Settings: mouse, plasma
No end group written: not given here.
Measured attribute: half-life (min)
Please give a number only; it is taken to be in min.

What does the data say about its half-life? Entry: FIGITELKKLESKINKVFAVGALKVPRNQDWLGVPRQL [UU-30] 20
